- assayName: qHTS of pediatric cancer cell lines to identify multiple opportunities for drug repurposing: Primary screen for control Hh wild type fibroblast cells (AID 1347106); further: nearly all actives have a fitted effect of over 55% in size
- testContext: Hh wild-type fibroblast viability, CellTiter-Glo luminescence, 48 h; series mostly up to 46 µM
- Method: Drug repurposing or repositioning has been offered as a strategy for drug development in oncology programs. […] [1] Shen, M et al. Quantitative high-throughput phenotypic screening of pediatric cancer cell lines identifies multiple opportunities for drug repurposing. […] Cells were assayed in growth media at a density of 500-1,000 cells/well. […] After a 15 min incubation at room temperature, samples were analyzed for luminescence intensity using a ViewLux High-throughput CCD imager equipped with clear filters.
Results filed as inconclusive are left out. The source made the active and inactive calls. The call rests on the fitted dose curve; in most records, active means well fitted cell-killing curve with a large enough effect; inconclusive means small, poorly fitted or top-dose-only effect; inactive means flat fitted curve, though single readings scatter.
// classify into t for active, f for inactive

A selection of reference data follows.
{"columns": ["compound", "discreteLabel"],
 "data": [
  ["Cc1cc(Nc2cc(N3CCN(C)CC3)nc(Sc3ccc(NC(=O)C4CC4)cc3)n2)n[nH]1", "f"],
  ["COc1cc(C)c(Sc2cnc(NC(=O)c3ccc(CNC(C)C(C)C)cc3)s2)cc1C(=O)N1CCN(C(C)=O)CC1 (stereo not given)", "f"]
]}

Field: outcome | Entry: Cc1cc(Nc2nc(N[C@@H](C)c3ccc(F)cc3)c(C#N)cc2F)n[nH]1
t

Give the logged outcome of this assay for the following compound: Nc1nc(-c2nn(Cc3ccccc3F)c3ncccc23)nc(N)c1N1CCOCC1
f

So what was the verdict on Cc1ccc(CN2CCNCC2)cc1NC(=O)CNc1ccc(F)c(F)c1 in this test?
f

How was CN1c2cc(O)c(N=NC(N)=O)cc2CC1S(=O)(=O)O (stereo not given) classified in this test?
f

For COc1ccc(-n2nc(C(N)=O)c3c2C(=O)N(c2ccc(N4CCCCC4=O)cc2)CC3)cc1 , which call appears in the assay record?
f

How did this test come out for NC1(Cc2ccc(Cl)cc2)CCN(c2ncnc3[nH]ccc23)CC1 ?
f

# fetch the recorded call for CC(O)C1C(=O)N2C(C(=O)O)=C(SC3CNC(C(=O)N(C)C)C3)C(C)C12 (stereo not given) here
f

Outcome? C=CCn1c(=O)c2cnc(Nc3ccc(N4CCN(C)CC4)cc3)nc2n1-c1cccc(C(C)(C)O)n1
f

Per the assay record, what outcome was assigned to CC(=O)SC[C@@H](C)C(=O)N1CCC[C@H]1C(=O)N[C@@H](Cc1ccccc1)C(=O)O ?
f

Outcome logged for Nc1cccc(-c2cc3c(Oc4cccc(O)c4)ncnc3[nH]2)c1 in this assay:
f

Please indicate how the test categorized COc1ccc(CC2SC(=O)NC2=O)cc1C(=O)NCc1ccc(C(F)(F)F)cc1 (stereo not given) .
f

Per the records of this test, what outcome belongs to CN1CCC(CNc2ccc3ncc(-c4cccc(OC(F)(F)F)c4)n3n2)CC1 ?
t

Test call, this compound: CC1COC2(CCN(c3nc(=O)c4cc(C(F)(F)F)cc([N+](=O)[O-])c4s3)CC2)O1 (stereo not given)
f

Could you please tell me the result logged for C[C@@H]1CN(CC(=O)Nc2ccc3c(c2)Cc2cccc(-c4cc(=O)cc(N5CCOCC5)o4)c2S3)C[C@H](C)O1 in this assay?
f

Outcome logged for O=C(CCCCCCNC(=O)c1cnc(N(c2ccccc2)c2ccccc2)nc1)NO in this assay:
f

Which result was noted for this compound in the test: O=C(NCCS(=O)(=O)c1ccc(C(F)(F)F)cn1)c1ccc(Cl)cc1
f

// outcome(item) with item = C[C@]12CC[C@H](O)CC1=CCC1C2CC[C@]2(C)C(n3cnc4ccccc43)=CCC12 (stereo not given in full)
f

Kindly provide the recorded test outcome for the following compound: CC(=O)Nc1sc2c(c1-c1nc3ccccc3s1)CNC2
f

* * *

- assayName: qHTS of pediatric cancer cell lines to identify multiple opportunities for drug repurposing: Primary screen for DAOY cells (AID 1347090); further: nearly all actives have a fitted effect of over 55% in size; further: potency means the concentration at half of the fitted maximal effect
- testContext: DAOY medulloblastoma viability, CellTiter-Glo luminescence, 48 h; series mostly up to 46 µM
Results filed as inconclusive are left out. Active and inactive are the calls of the source. Calls come from the whole dose curve; as a rule, active = well fitted cell-killing curve with a large enough effect; inconclusive = small, poorly fitted or top-dose-only effect; inactive = flat fitted curve, though single readings scatter.
measuredParameter: Potency

{"columns": ["compound", "Potency"],
 "data": [
  ["CC[C@H](CO)Nc1nc(NCc2ccccc2)c2ncn(C(C)C)c2n1", "23.5 µM (active)"],
  ["C[C@]1(CO)CN(c2cc(C(=O)Nc3ccc4c(c3)-c3c(c(C(N)=O)nn3-c3ccc(F)cc3)CC4)c(Cl)cn2)C[C@@]1(C)CO", "11.8 µM (active)"],
  ["COc1cc2c(NC3CCN(C(C)C)CC3)nc(C3CCCCC3)nc2cc1OCCCN1CCCC1", "18.7 µM (active)"],
  ["Cc1ccc(-c2ncn(-c3ccc(Nc4nccc(-c5cccc(N6CCOCC6)c5)n4)cc3)n2)cn1", "0.187 µM (active)"]
]}

I would be grateful if you could share the reported Potency for Cc1ccc(CN2CCNCC2)cc1NC(=O)CNc1ccc(F)c(F)c1 .
inactive

Item under review: COc1cc2c(Oc3ccc(-c4cnc(Nc5ccc(F)cc5)n(C)c4=O)cc3F)ccnc2cc1OCCCN1CCOCC1 . Reported Potency?
18.7 µM (active)

Form field: reported Potency of Cn1c2cc(S(C)=O)sc2c2cnn(Cc3cccc(N)c3)c(=O)c21 (centres undefined)
inactive

# query: Potency of entry COc1cc2c(Oc3ccc4[nH]c(C)cc4c3F)ncnc2cc1OCCCN1CCCC1
18.7 µM (active)

So what's the measured Potency for this one? CCNC(=O)Nc1ccc2ncc(Nc3ccc(C)cc3)nc2n1
0.0372 µM (active)

* * *

- assayName: NS1 protein of Zika virus - qHTS assay to identify small molecule inhibitors in human HEK 293 cells (AID 1347053); further: nearly all actives have a fitted effect of over 55% in size
- testContext: HEK293 ZIKV MR766 infection, NS1 TR-FRET, 24 h; series mostly up to 46.1 µM
Results filed as inconclusive are left out. The source made the active and inactive calls. Calls come from the whole dose curve; as a rule, active = well fitted inhibition curve with a large enough effect; inconclusive = small, poorly fitted or top-dose-only effect; inactive = no such curve, though single readings can be large or run the other way.
One label from this list, please: true (1) for active, false (0) for inactive

{"columns": ["molecule", "discreteLabel"],
 "data": [
  ["C[C@@]12O[C@@H](C[C@]1(O)CO)n1c3ccccc3c3c4c(c5c6ccccc6n2c5c31)CNC4=O", "true (1)"],
  ["Cc1cc(N2CCOCC2)cc2[nH]c(-c3c(NC[C@@H](O)c4cccc(Cl)c4)cc[nH]c3=O)nc12", "false (0)"],
  ["CN1CCC(CNc2ccc3ncc(-c4cccc(OC(F)(F)F)c4)n3n2)CC1", "true (1)"]
]}

Hey, what did the test say about O=C(O)C1(Cc2cccc(Nc3nccs3)n2)CCC(Oc2cccc(Cl)c2F)CC1 (centres undefined) ?
false (0)

Look up the recorded call for O=C(Nc1cc(C(F)(F)F)cc(C(F)(F)F)c1)c1cc(Cl)ccc1O in this test.
true (1)

Please indicate how the test categorized C=CC(=O)Nc1cccc(Oc2nc(Nc3ccc(N4CCN(C)CC4)cc3)ncc2Cl)c1 .
true (1)

Hi, do you know how COc1ccc(F)c(F)c1C(=O)c1cnc(NC2CCN(S(C)(=O)=O)CC2)nc1N came out in this test?
true (1)

I'd appreciate the recorded outcome for C[C@@H](Oc1cc(-n2cnc3ccc(CN4CCN(C)CC4)cc32)sc1C(N)=O)c1ccccc1C(F)(F)F from this test.
true (1)

Which outcome did this test record for the molecule COc1cc2c(Oc3ccc4[nH]c(C)cc4c3F)ncnc2cc1OCCCN1CCCC1 ?
false (0)

What call does the record list for Clc1cccc(-c2nnnn2Cc2cccnc2)c1Cl ?
false (0)

Field: outcome | Entry: CC(=O)OCC(=O)[C@@]1(O)[C@H](C)C[C@H]2[C@@H]3C=C(C)C4=Cc5c(cnn5-c5ccccc5)C[C@]4(C)[C@@H]3[C@@H](O)C[C@@]21C
true (1)

Lab log entry: CS(=O)(=O)N1CCN(Cc2cc3nc(-c4cccc5[nH]ncc45)nc(N4CCOCC4)c3s2)CC1 — outcome as called in the assay?
true (1)

How did this test come out for O=C(Nc1cn[nH]c1-c1nc2ccc(CN3CCOCC3)cc2[nH]1)NC1CC1 ?
true (1)

Outcome? Nc1ncnc2c1c(-c1cnc3[nH]ccc3c1)nn2C1CCCC1
true (1)

Please indicate how the test categorized O=C(O)[C@H](Cc1c[nH]c2ccccc12)N1C(=O)c2ccccc2C1=O .
false (0)

* * *

- assayName: Quantitative High-Throughput drug screen in 47 multiple myeloma cell lines against the NCATS MIPE library collection: KMS12BM_JCRB cell viability assay (AID 1918971); further: nearly all actives have a fitted effect of over 35% in size
- testContext: KMS12BM myeloma viability, CellTiter-Glo ATP, 48 h; series mostly up to 45.8 µM
Inconclusive results are not listed. The source made the active and inactive calls. Calls come from the whole dose curve; as a rule, active = well fitted cell-killing curve with a large enough effect; inconclusive = small, poorly fitted or top-dose-only effect, or effect the other way; inactive = no such curve, though single readings can be large or run the other way.
Entry note: the call must match one of label 1 for active, label 0 for inactive

{"columns": ["compound", "discreteLabel"],
 "data": [
  ["CCN(CC)CCCCNc1ncc2cc(-c3cc(OC)cc(OC)c3)c(NC(=O)NC(C)(C)C)nc2n1", "label 1"],
  ["CCN1CCN(CC(=O)Nc2ccc(-c3cccc4c(=O)cc(N5CCOCC5)oc34)c3sc4ccccc4c23)CC1", "label 1"],
  ["Cc1cc(C(=O)N2CCN(c3cccc(Cl)c3)CC2)n(-c2ccccc2)n1", "label 1"],
  ["CCCCOc1c(C(=O)c2c(F)cc(C)cc2F)cnc2n[nH]cc12", "label 1"],
  ["COc1ccc(-n2nc(C(N)=O)c3c2C(=O)N(c2ccc(N4CCCCC4=O)cc2)CC3)cc1", "label 0"]
]}

Recorded call for CN(C)Cc1c(C(=O)NCCOc2ccc(C(=O)NO)cc2)oc2ccccc12 ?
label 1

Each compound tested received a call. Report the one for CCOC(=O)C1=C(C)NC2=C(C(=O)CC(C)(C)C2)C1c1ccc(-c2ccccc2)cc1 (centres undefined) .
label 1

Please state the recorded outcome for this compound: COc1cc2c(Oc3ccc4[nH]c(C)cc4c3F)ncnc2cc1OCCCN1CCCC1
label 1

What did this assay record as the result for CC(C)[C@H](C(=O)Nc1ccc(C(=O)NO)cc1)c1ccccc1 ?
label 1

Entry CNC(=O)CN1CCC(Oc2cc3c(Nc4cccc(Cl)c4F)ncnc3cc2OC)CC1 : call = ?
label 1

# fetch the recorded call for C1Cc2[nH]nc(-c3nn[nH]n3)c2C1 here
label 0

In this assay, the call recorded for COc1cc2c(NC3CCN(C(C)C)CC3)nc(C3CCCCC3)nc2cc1OCCCN1CCCC1 was what?
label 1

Please state the recorded outcome for this compound: O=C(O)C1(Cc2cccc(Nc3nccs3)n2)CCC(Oc2cccc(Cl)c2F)CC1 (centres undefined)
label 1

// outcome(item) with item = CC1(C)CCC(c2ccc(Cl)cc2)=C(CN2CCN(c3ccc(C(=O)NS(=O)(=O)c4ccc(N[C@H](CCN5CCOCC5)CSc5ccccc5)c(S(=O)(=O)C(F)(F)F)c4)cc3)CC2)C1
label 1

How was Nc1ccc(S(=O)(=O)Nc2ncccn2)cc1 classified in this test?
label 0

I'd appreciate the recorded outcome for C[C@@H]1COC(Nc2ccc3ncnc(Nc4ccc(OCc5nccs5)c(Cl)c4)c3c2)=N1 from this test.
label 1

Dear all, I need the recorded test outcome for CCCCCN(CCC12CC3CC(CC(C3)C1)C2)C(=O)NCCCc1ccncc1 , thank you.
label 1

Identify the outcome logged in this assay for the compound shown: C=C1C(=CC=C2CCC[C@]3(C)[C@@H]([C@H](C)C=C[C@H](C)C(C)C)CC[C@@H]23)C[C@@H](O)C[C@@H]1O
label 1

// param item: O=C(Nc1nc2cccc(-c3ccc(CN4CCS(=O)(=O)CC4)cc3)n2n1)C1CC1 ; yields the recorded call
label 1
